test target: UniProtKB P28293
Sequence (P28293 whole entry): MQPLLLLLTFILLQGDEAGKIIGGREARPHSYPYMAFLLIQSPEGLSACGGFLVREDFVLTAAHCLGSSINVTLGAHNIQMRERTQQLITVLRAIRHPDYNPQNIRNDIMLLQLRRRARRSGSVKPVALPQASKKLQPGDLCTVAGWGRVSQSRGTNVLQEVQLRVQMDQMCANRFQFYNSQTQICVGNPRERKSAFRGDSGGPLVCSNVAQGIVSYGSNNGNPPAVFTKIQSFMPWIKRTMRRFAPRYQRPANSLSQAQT
protocol description: Inhibition of cathepsin G activation in beta-estradiol differentiated mouse EcoM-G cells after 24 hrs
measure: IC50

Guide cases for IC50, answers given:
N#C[C@]1(NC(=O)C(N)Cc2cccs2)C[C@H]1c1ccccc1.O=C(O)C(F)(F)F (single isomer, unassigned)    > 50 µM
N#C[C@]1(NC(=O)C(N)Cc2cncs2)C[C@H]1c1ccccc1 (stereo not given in full)    > 50 µM
CS(=O)(=O)C[C@H](N[C@@H](c1ccc(Br)cc1)C(F)(F)F)C(=O)NC1(C#N)CC1    > 50 µM
Cc1cc(C)cc(CC(NC(=O)C(c2ccccc2)c2ccccc2)C(=O)NCC#N)c1 (stereo not given)    > 50 µM

With those in mind, consider the next compound.
Name the recorded IC50 of the item CCOC(=O)[C@H]1O[C@@H]1C(=O)N[C@@H](CC(C)C)C(=O)NCCC(C)C in your answer. > 10 µM
